Catalogue of compounds with associated IC50
target: mouse TRPM3α2 (mTRPM3) ion channel (Mus musculus); construct: expressed in transfected cells; host or cells: flip-in HEK293; assay: TRPM3 ion channel driven Ca2+ uptake, Fluo-4 AM assay, PS-stimulated (mTRPM3); type: cell-based; conditions: TRPM3 overexpressing flip-in HEK293 cells stimulated with Pregnenolone sulfate (PS) 50 μM, activity ranges A, B, C

**Q:** Query (compound): COCC(Oc1ccc2oc(C)c(C(=O)N[C@@H](CO)C(N)=O)c2c1)c1ccccc1 (single isomer, unassigned) [Cpd 346-En 1] ; field requested: IC50
**A:** < 1000 nM

====

biological target: UniProt:J9SQF3; test: TRPM3 ion channel driven Ca2+ uptake, Fluo-4 AM assay, PS-stimulated (mTRPM3); details: TRPM3 overexpressing flip-in HEK293 cells stimulated with Pregnenolone sulfate (PS) 50 μM, activity ranges A, B, C
observation_type: IC50

Answered cases to consult:
compound: CCOC(=O)c1coc2ccc(OCc3ccccc3)cc12 [Cpd 029]
measured_value: > 20000 nM
//
compound: Cc1oc2ccc(OCc3c(F)cccc3F)cc2c1C(=O)NC1CCNCC1(F)F (centres unmarked) [Cpd 226]
measured_value: < 1000 nM
//
compound: Cc1oc2ccc(OCc3ccccc3)cc2c1C(=O)N[C@@H]1CN[C@H](CO)C1 [Cpd 126]
measured_value: < 1000 nM
//
compound: Cc1oc2ccc(OCc3ccccc3)cc2c1C(=O)NC1CCS(=O)(=O)CC1 [Cpd 198]
measured_value: < 1000 nM
//
compound: Cc1oc2ccc(OCc3ccccc3)cc2c1C(=O)NC1CCC(C)CC1 (centres unmarked) [Cpd 106]
measured_value: > 20000 nM
//
compound: Cc1oc2ccc(OCc3cccc(F)c3F)cc2c1C(=O)NC1CNCC1(F)F (centres unmarked) [Cpd 211]
measured_value: < 1000 nM
//
compound: Cc1oc2ccc(OCc3ccccc3)cc2c1C(=O)NC1CCNCC1F (centres unmarked) [Cpd 131]
measured_value: < 1000 nM
//
compound: Cc1oc2ccc(OCc3ccccc3)cc2c1C(=O)N[C@@H]1C[C@H]2CC[C@@H](C1)N2C [Cpd 182]
measured_value: < 1000 nM
//
compound: Cc1oc2ccc(OCc3ccccc3)cc2c1C(=O)N[C@H]1CCN(C)C1 [Cpd 079]
measured_value: < 1000 nM
//
compound: Cc1oc2ccc(OCc3ccccc3)cc2c1C(=O)NCC(c1ccccc1)N(C)C (centres unmarked) [Cpd 216]
measured_value: 1000 to 20000 nM

**Q:** Would you kindly share the measured IC50 for Cc1oc2ccc(OCc3ccccc3F)cc2c1C(=O)NC1(CO)CCNC1=O (single isomer, unassigned) [Cpd 334-En 2] ?
**A:** < 1000 nM

**Q:** Record request: IC50 value, item Cc1oc2ccc(OCc3ccccc3)cc2c1C(=O)N[C@H]1C[C@@H](O)C1 [Cpd 054]
**A:** < 1000 nM

**Q:** Value lookup for IC50; key = CCCNC(=O)c1c(C)oc2ccc(OCc3ccccc3)cc12 [Cpd 040]
**A:** 1000 to 20000 nM

**Q:** Entry Cc1oc2ccc(OCc3cccc(C(F)(F)F)c3)cc2c1C(=O)N[C@H]1CCNC1 [Cpd 204] has what IC50?
**A:** < 1000 nM

====

Reported pIC50 values are given for each entry in this list.
biological target: mouse TRPM3α2 (mTRPM3) ion channel (Mus musculus, UniProt J9SQF3); construct: expressed in transfected cells; host or cells: flip-in HEK293; experiment: TRPM3 ion channel driven Ca2+ uptake, Fluo-4 AM assay, PS-stimulated (mTRPM3); assay type: cell-based; conditions: TRPM3 overexpressing flip-in HEK293 cells stimulated with Pregnenolone sulfate (PS) 50 μM, activity ranges A, B, C
Sequence (J9SQF3 1-1709 isoform J9SQF3-12): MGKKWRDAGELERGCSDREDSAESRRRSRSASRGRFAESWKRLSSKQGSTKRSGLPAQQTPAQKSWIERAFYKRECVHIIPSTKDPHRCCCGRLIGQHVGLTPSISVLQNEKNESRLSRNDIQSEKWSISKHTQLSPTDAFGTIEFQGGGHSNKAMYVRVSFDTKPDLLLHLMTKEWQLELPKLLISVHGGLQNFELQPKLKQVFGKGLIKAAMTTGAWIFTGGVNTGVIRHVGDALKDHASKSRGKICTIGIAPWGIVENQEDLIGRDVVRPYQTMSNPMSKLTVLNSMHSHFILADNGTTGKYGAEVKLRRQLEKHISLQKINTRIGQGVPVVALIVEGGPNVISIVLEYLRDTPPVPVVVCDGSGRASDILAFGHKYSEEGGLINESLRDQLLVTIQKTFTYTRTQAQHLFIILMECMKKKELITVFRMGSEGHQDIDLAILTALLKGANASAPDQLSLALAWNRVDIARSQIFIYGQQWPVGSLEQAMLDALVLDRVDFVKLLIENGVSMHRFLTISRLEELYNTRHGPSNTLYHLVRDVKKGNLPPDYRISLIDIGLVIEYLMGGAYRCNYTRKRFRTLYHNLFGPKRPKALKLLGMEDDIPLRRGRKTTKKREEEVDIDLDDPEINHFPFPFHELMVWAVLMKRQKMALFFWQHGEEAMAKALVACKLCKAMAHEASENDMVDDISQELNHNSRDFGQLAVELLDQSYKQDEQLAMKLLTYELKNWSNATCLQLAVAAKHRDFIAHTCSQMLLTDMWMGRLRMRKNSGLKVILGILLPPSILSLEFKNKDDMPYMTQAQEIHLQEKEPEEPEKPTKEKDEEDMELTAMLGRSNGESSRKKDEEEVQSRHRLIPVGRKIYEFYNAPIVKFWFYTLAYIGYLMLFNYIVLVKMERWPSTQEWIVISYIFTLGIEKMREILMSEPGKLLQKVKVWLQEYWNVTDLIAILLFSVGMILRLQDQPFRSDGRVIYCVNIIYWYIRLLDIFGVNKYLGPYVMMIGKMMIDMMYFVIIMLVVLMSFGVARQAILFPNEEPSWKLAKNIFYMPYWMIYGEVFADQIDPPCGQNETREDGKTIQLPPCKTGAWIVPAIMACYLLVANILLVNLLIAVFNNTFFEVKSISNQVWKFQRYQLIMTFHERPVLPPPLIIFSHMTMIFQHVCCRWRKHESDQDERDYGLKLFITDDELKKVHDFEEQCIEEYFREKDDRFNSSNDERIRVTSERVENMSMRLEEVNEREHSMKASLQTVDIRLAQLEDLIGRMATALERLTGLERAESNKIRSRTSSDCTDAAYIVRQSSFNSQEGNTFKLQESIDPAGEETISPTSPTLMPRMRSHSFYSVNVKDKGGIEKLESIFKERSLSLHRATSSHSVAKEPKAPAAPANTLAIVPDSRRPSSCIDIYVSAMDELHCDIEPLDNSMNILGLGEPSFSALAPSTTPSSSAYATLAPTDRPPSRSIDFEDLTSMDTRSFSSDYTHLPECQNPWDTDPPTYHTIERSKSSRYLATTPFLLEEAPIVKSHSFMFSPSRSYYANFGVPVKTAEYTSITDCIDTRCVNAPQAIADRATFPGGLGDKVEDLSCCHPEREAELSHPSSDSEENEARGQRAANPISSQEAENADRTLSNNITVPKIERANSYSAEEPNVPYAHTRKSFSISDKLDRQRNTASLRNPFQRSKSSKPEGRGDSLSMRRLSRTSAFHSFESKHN
pIC50: −log10 of the molar value.

Example cases with answers are listed next.
compound: Cc1oc2ccc(OCc3ccccc3)cc2c1C(=O)Nc1ccn(C)n1
pIC50: > 6.00
//
compound: Cc1oc2ccc(OCc3ccccc3)cc2c1C(=O)N1CCN(C)CC1
pIC50: < 4.70
//
compound: Cc1oc2ccc(OCc3ccccc3C(F)(F)F)cc2c1C(=O)N[C@H]1CCNC1
pIC50: > 6.00
//
compound: Cc1oc2ccc(OCc3ccccc3)cc2c1C(=O)NC1CCCNC1=O (stereo not shown)
pIC50: > 6.00
//
compound: Cc1oc2ccc(OCc3cccc(F)c3)cc2c1C(=O)NCC1CCCO1 (stereo not shown)
pIC50: > 6.00

**Q:** Suppose we examine the compound Cc1oc2ccc(OCc3ccccc3)cc2c1C(=O)NC1CCC(O)C1 (stereo not shown) ; what pIC50 value has been reported?
**A:** > 6.00

**Q:** Look at this compound and give its reported pIC50. Cc1oc2ccc(OCc3ccccc3N3CCN(C)CC3)cc2c1C(=O)NC1CCNC1=O (stereo not shown)
**A:** < 4.70

====

target: mouse TRPM3α2 (mTRPM3) ion channel (Mus musculus, UniProt J9SQF3); test: TRPM3 ion channel driven Ca2+ uptake, Fluo-4 AM assay, PS-stimulated (mTRPM3); details: TRPM3 overexpressing flip-in HEK293 cells stimulated with Pregnenolone sulfate (PS) 50 μM, activity ranges A, B, C
pIC50: −log10 of the molar value.
observation_type: pIC50

Example entries begin here.
compound: Cc1oc2ccc(OCc3ccccc3)cc2c1C(=O)Nc1cnccn1 [Cpd 061]
measured_value: > 6.00
//
compound: Cc1oc2ccc(OCc3ccccc3F)cc2c1C(=O)NC(C)CO (single isomer, unassigned) [Cpd 328-En 1]
measured_value: > 6.00
//
compound: COc1ccccc1COc1ccc2oc(C)c(C(=O)NC3CCNC3=O)c2c1 (stereo not shown) [Cpd 164]
measured_value: > 6.00
//
compound: Cc1oc2cc(Cl)c(OCc3ccccc3)cc2c1C(=O)NC1CNCC1(F)F (single isomer, unassigned) [Cpd 300-En 2]
measured_value: < 4.70
//
compound: Cc1oc2ccc(OCc3ccccc3)cc2c1C(=O)NC1(CO)CCOCC1 [Cpd 167]
measured_value: > 6.00

**Q:** Entry Cc1oc2ccc(OCc3ccccc3)cc2c1C(=O)NC1CCN(C)C1 (stereo not shown) [Cpd 076] : reported pIC50 = ?
**A:** > 6.00

**Q:** // pIC50 lookup, key: Cc1oc2ccc(OCc3cccc(F)c3)cc2c1C(=O)N[C@H]1CCNC1 [Cpd 096]
**A:** > 6.00

**Q:** Report pIC50 for Cc1oc2ccc(OCc3ccccc3S(C)(=O)=O)cc2c1C(=O)NC1(CO)CCOCC1 [Cpd 332] please.
**A:** 4.70 to 6.00

**Q:** pIC50 for Cc1oc2ccc(OCc3ccccc3)cc2c1C(=O)NCCc1ccccn1 [Cpd 138] ?
**A:** 4.70 to 6.00

**Q:** Which value of pIC50 has been reported for Cc1oc2ccc(OCc3ccccc3)cc2c1C(=O)NS(=O)(=O)C(F)(F)F [Cpd 195] in the records?
**A:** < 4.70

====

// IC50 lookup, one value per entry
target: mouse TRPM3α2 (mTRPM3) ion channel (Mus musculus, UniProt J9SQF3); experiment: TRPM3 ion channel driven Ca2+ uptake, Fluo-4 AM assay, PS-stimulated (mTRPM3); details: TRPM3 overexpressing flip-in HEK293 cells stimulated with Pregnenolone sulfate (PS) 50 μM, activity ranges A, B, C

molecule: Cc1oc2ccc(OCc3ccccc3)cc2c1C(=O)Nc1cccnn1
target_system: mouse TRPM3α2 (mTRPM3) ion channel (Mus musculus, UniProt J9SQF3)
measured_value: > 20000 nM
//
molecule: Cc1oc2ccc(OCc3ccccc3)cc2c1C(=O)N[C@H]1CCCNC1=O
target_system: mouse TRPM3α2 (mTRPM3) ion channel (Mus musculus, UniProt J9SQF3)
measured_value: < 1000 nM
//
molecule: Cc1oc2ccc(OCc3ccccc3)cc2c1C(=O)NC1CN(C(=O)OC(C)(C)C)C1
target_system: mouse TRPM3α2 (mTRPM3) ion channel (Mus musculus, UniProt J9SQF3)
measured_value: 1000 to 20000 nM
//
molecule: Cc1oc2ccc(OCc3ccccc3)cc2c1C(=O)NCC1CCNCC1
target_system: mouse TRPM3α2 (mTRPM3) ion channel (Mus musculus, UniProt J9SQF3)
measured_value: 1000 to 20000 nM
//
molecule: Cc1oc2ccc(OCc3ccccc3)cc2c1C(=O)NC1CCCNC1 (stereo not shown)
target_system: mouse TRPM3α2 (mTRPM3) ion channel (Mus musculus, UniProt J9SQF3)
measured_value: < 1000 nM
//
molecule: Cc1oc2ccc(OCc3ccccc3)cc2c1C(=O)NC1CCNC(=O)C1 (stereo not shown)
target_system: mouse TRPM3α2 (mTRPM3) ion channel (Mus musculus, UniProt J9SQF3)
measured_value: 1000 to 20000 nM
//
molecule: COc1ccc(COc2ccc3oc(C)c(C(=O)O)c3c2)cc1
target_system: mouse TRPM3α2 (mTRPM3) ion channel (Mus musculus, UniProt J9SQF3)
measured_value: 1000 to 20000 nM
//
molecule: Cc1oc2ccc(OCc3ccccc3F)cc2c1C(=O)NC1(C(N)=O)CC1
target_system: mouse TRPM3α2 (mTRPM3) ion channel (Mus musculus, UniProt J9SQF3)
measured_value: < 1000 nM

**Q:** mouse TRPM3α2 (mTRPM3) ion channel (Mus musculus, UniProt J9SQF3) / IC50 / Cc1oc2ccc(OCc3ccccc3)cc2c1C(=O)N[C@H]1C[C@H]2C(=O)N(C)CC(=O)N2C1 : value?
**A:** 1000 to 20000 nM

**Q:** Param readout = IC50; param system = mouse TRPM3α2 (mTRPM3) ion channel (Mus musculus, UniProt J9SQF3); param query = Cc1ccccc1COc1ccc2oc(C)c(C(=O)O)c2c1 ; response: value
**A:** < 1000 nM

**Q:** Given the entry Cc1oc2ccc(OC(C)c3ccccc3)cc2c1C(=O)N[C@@H](CO)C(N)=O (single isomer, unassigned) [Cpd 336-Dia 1] , what IC50 was observed with mouse TRPM3α2 (mTRPM3) ion channel (Mus musculus, UniProt J9SQF3)?
**A:** < 1000 nM

**Q:** Given the entry Cc1oc2ccc(COc3ccccc3F)cc2c1C(=O)NC(C)(C)CO , what IC50 was observed with mouse TRPM3α2 (mTRPM3) ion channel (Mus musculus, UniProt J9SQF3)?
**A:** 1000 to 20000 nM

**Q:** Provide value of IC50 for this record tested with mouse TRPM3α2 (mTRPM3) ion channel (Mus musculus, UniProt J9SQF3): CCNC(=O)c1c(C)oc2ccc(OCc3ccccc3)cc12
**A:** 1000 to 20000 nM
